Parameter pIC50: see the listing below.
Test system: HCT-116
Experiment: cells
Settings: Homo sapiens, HCT-116, 96 h
Description: Antiproliferative activity against ALK-negative human HCT-116 cells assessed as inhibition of cell growth incubated for 96 hrs by MTT assay
Entry type: numeric. Quantity: pIC50, the -log10 of concentration in molar units.

Cc1cc(Nc2ncc(Cl)c(Nc3ccccc3S(=O)(=O)C(C)C)n2)c(OC(C)C)cc1C1CCN(C(=O)SCC(=S)N2CCCC2)CC1 :: 5.50
Cc1cc(Nc2ncc(Cl)c(Nc3ccccc3S(=O)(=O)C(C)C)n2)c(OC(C)C)cc1C1CCN(C(=O)SCC(=S)N2CCN(CCO)CC2)CC1 :: 5.82
Cc1cc(Nc2ncc(Cl)c(Nc3ccccc3S(=O)(=O)C(C)C)n2)c(OC(C)C)cc1C1CCN(C(=S)SCCN2CCN(C)CC2)CC1 :: 5.66
Cc1cc(Nc2ncc(Cl)c(Nc3ccccc3S(=O)(=O)C(C)C)n2)c(OC(C)C)cc1C1CCN(C(=S)SCCN2CCOCC2)CC1 :: 5.42

Query: So what's the measured pIC50 for this one? `Cc1cc(Nc2ncc(Cl)c(Nc3ccccc3S(=O)(=O)C(C)C)n2)c(OC(C)C)cc1C1CCN(C(=O)SCC(=S)N(C)CCN(C)C)CC1`
Response: 5.18

Query: So what's the measured pIC50 for this one? `Cc1cc(Nc2ncc(Cl)c(Nc3ccccc3S(=O)(=O)C(C)C)n2)c(OC(C)C)cc1C1CCN(C(=S)SCC(=O)N2CCC(C)CC2)CC1`
Response: 5.26
